- Test system: MS2 coat protein
- test_method_notes: apparent KD of MS2 coat protein; designed switch direction (-1 OFF switch, 1 ON switch): -1; higher = weaker reporter binding
- condition_notes: input ligand: none
measured_property: apparent KD of MS2 coat protein (nM)
Give just the number in nM; leave the unit off.

Recorded apparent KD of MS2 coat protein of UCGCUCCGUGUAGGAUAUCGUUGUACUCUGCGGCGAGAAGGACAUGAGGAUCACCCAUGUAUGUUAUUAUCACGCGUGGCGCAA [Design 68] (Eterna round: R96, puzzle: Exclusion NG 1) , please.
19

Sample AGCUAGUCAGGAUAUUCUAAUAAUUACAUGAGGAUCACCCAUGUGAAGGGACAAGGGUGUGAAGAAGGGACUAGCG [Omei Ex5 A3] (Eterna round: R97, puzzle: Exclusion 5) — what was its apparent KD of MS2 coat protein?
529

What value of measured apparent KD of MS2 coat protein is listed for GGGCCCGGAGGAUAUACAAUCCCGGGCCGAAAGGUUUGGGUACAUGAGGAUCACCCAUGUAGAAGGCCGGGCCC [-40.9, -38.2 kcal A 24%, 5b bis,0] (Eterna round: R97, puzzle: Exclusion 2) ?
17.9

Which apparent KD of MS2 coat protein is listed for UUUACAAGCUUUUGAUCCCACAUGAGGAUCACCCAUGUUGCUGCCGUGAGGUAGCUUUUAACAAAUGCUCGUCUUAU [JL TOV1 3.37] (Eterna round: R97, puzzle: Sensor, turn-off variant 1) ?
690

Look up apparent KD of MS2 coat protein: CGAGACGGAGGAUAUACAUGAGGAUCACCCAUGUUAAACCACGGGUAGCCUUCGGUCGGUAGAAGGCCGCAUCG [Eternabot (Original) Solution 47] (Eterna round: R97, puzzle: Exclusion 3)
21.2

Entry AUCAGCUCGUGAGGAUAUACAUGAGGAUCACCCAUGUGGUCAAUAGCAGCUUCGGCUGCAUACAUGUAGAAGGCACGAGCUGAU [ENG2/7-A2] (Eterna round: R96, puzzle: Exclusion NG 2) has what apparent KD of MS2 coat protein?
30.1

Sample GCAGUGUCAGGAUAUUCGAGUUCGAGUGAAAGCUUGAGCUUGAAGAAGGGACAUGAGGAUCACCCAUGUGCUGU [-28.7, -27.7 kcal, A 27%, 1bis-(ca)1bis] (Eterna round: R97, puzzle: Exclusion 4) — what was its apparent KD of MS2 coat protein?
42.1

Using the record for AGAGUACAUGUGAGGAUAUCUGGAGUGUCCCACGAAGAGAAGGCACAUGAGGAUCACCCAUGUCGUCCCGGUUU [Eternabot (L1) Solution 28] (Eterna round: R97, puzzle: Brourd's mod of Exclusion 4) , report its apparent KD of MS2 coat protein.
17.1

Any idea what its apparent KD of MS2 coat protein is? The sequence is AAUGGUAAAGUCAGGAUAUACGUAAAUCGUUCUAGGUAGAAGGGACAUGAGGAUCACCCAUGUAUGAUAGUAAA [Ex4 #32] (Eterna round: R97, puzzle: Brourd's mod of Exclusion 4)
35.4

# query: apparent KD of MS2 coat protein of entry UGCCGGCAUGUAAGGAUAUCCAGGAGAUGUAGAUCGGAGAAGGUACAUGAGGAUCACCCAUGUAUUCCAAUAAA [BmEX4 C.19] (Eterna round: R97, puzzle: Brourd's mod of Exclusion 4)
18.5

Returns the measured apparent KD of MS2 coat protein for the input sequence. Input: GGAGAGAGGCAGGAUAUGGGAGGGAGGACCGGACCAGAAGGGUUGACAUGAGGAUCACCCAUGUAGAGAUCCUC [AK-MS2ROC-r4-exclusion6-6.8] (Eterna round: R97, puzzle: Exclusion 6)
1140

Need apparent KD of MS2 coat protein, item UCGCUCCGUGUAGGAUAUCGCCGUUCUAUUCGGCGAGAAGGACAUGAGGAUCACCCAUGUAUGUUAUUAUCACGCGUGGCGCGC [Design 56] (Eterna round: R96, puzzle: Exclusion NG 1)
15.4

Query (sequence): UUUGCAAGCUUUUGAUCCCACAUGAGGAUCACCCAUGUUGCUGCCGUGAGGUAGCAUUUAACAAAUGCUCGUCUUAU [JL TOV1 3.53] (Eterna round: R97, puzzle: Sensor, turn-off variant 1) ; field requested: apparent KD of MS2 coat protein
762

Consider the sequence shown here: UAAGGUCGUCAAUACCUAACCACAUGAGGAUCACCCAUGUCUGAGGAUAUGAAGGCGGCCCGCCAUUAGAAGGCAGCAAGGGAA [Ustiarmadi] (Eterna round: R96, puzzle: Exclusion NG 3) What is its recorded apparent KD of MS2 coat protein?
14.4

# input sequence: CGGAUGUGAGGAUAUACAUGAGGAUCACCCAUGUGUGCCAGCUAGAUGACUGGCACUUGUAGAAGGCACGUCUG [Mat - Exclusion 3 - Mod of JL D91] (Eterna round: R96, puzzle: Exclusion 3) ; wanted: its apparent KD of MS2 coat protein
16.1

Consider the sequence shown here: CGCACACAUGAGGAUCACCCAUGUGAGGAUAUCAUGCUUCGUAGUAAACUACGAAGUGUGAGAAGGCACAUGCC [Omei Ex1 D7] (Eterna round: R97, puzzle: Exclusion 1) What is its recorded apparent KD of MS2 coat protein?
18.4

# input sequence: GUUUUCAGACGGAGAUCCUACAUGAGGAUCACCCAUGUCUCACUAGUUUUUUGCUCGUCUUAUCCUCCUCUGUUCUC [Elimod 29 - Jieux - Sensor, turn-off variant 1] (Eterna round: R97, puzzle: Sensor, turn-off variant 1) ; wanted: its apparent KD of MS2 coat protein
926

State the recorded apparent KD of MS2 coat protein for this entry: AAGAUGUGAGGAUAUCACGAAGGCGUCAAACUGACGCCUUCUGAGAAGGCACAUGAGGAUCACCCAUGUCCAAA [EX4 A.23] (Eterna round: R97, puzzle: Exclusion 4)
58.6

Values were extracted from the supplement of paper PMC9170038.
